Hey, just so you know, these numbers are from patent US5801039.

TGT: T1, succinyl-L-alanyl-L-alanyl-L-prolyl-L-phenylalanyl-p-nitroanilide
T1 sequence (peptide, N-terminal succinyl; C-terminal p-nitroanilide): AAPF
RECORDED ENDPOINT: kcat · Km^-1 (M⁻¹ s⁻¹)
// return numeric value only (unit: M⁻¹ s⁻¹, not printed)

- BINDER: "BLAP mutant F44 (S3T + V4I + R99A + A188P + V193M + V199I) (enzyme) AQTIPWGISRVQAPAAHNRGLTGSGVKVAVLDTGISTHPDLNIRGGASFVPGEPSTQDGNGHGTHVAGTIAALNNSIGVLGVAPSAELYAVKVLGADGAGAISSIAQGLEWAGNNGMHVANLSLGSPSPSATLEQAVNSATSRGVLVVAASGNSGASSISYPARYANAMAVGATDQNNNRASFSQYGPGLDIMAPGVNIQSTYPGSTYASLNGTSMATPHVAGAAALVKQKNPSWSNVQIRNHLKNTATSLGSTNLYGSGLVNAEAATR"
  kcat · Km^-1 / M⁻¹ s⁻¹: 103000

Alright, here's another binder for you.
Query: Any idea what its kcat · Km^-1 is? The binder is BLAP mutant F55 (S3T + V4I + S154E + A188P + V193M + V199I + L211D) (enzyme) AQTIPWGISRVQAPAAHNRGLTGSGVKVAVLDTGISTHPDLNIRGGASFVPGEPSTQDGNGHGTHVAGTIAALNNSIGVLGVAPSAELYAVKVLGADGRGAISSIAQGLEWAGNNGMHVANLSLGSPSPSATLEQAVNSATSRGVLVVAASGNEGASSISYPARYANAMAVGATDQNNNRASFSQYGPGLDIMAPGVNIQSTYPGSTYASDNGTSMATPHVAGAAALVKQKNPSWSNVQIRNHLKNTATSLGSTNLYGSGLVNAEAATR
Reply: 2600
